- System: NCI-H322M lung
- method summary: NCI-60 one-dose screen, 48 h (100 = growth as untreated, 0 = no growth, -100 = all killed)
- condition context: 10 µM unless noted
This is part of a sample that, as a whole, favours compounds with a hit. Of some 83,000 tested, about 20% had one in any assay.
quantity: growth (%)
The figure you give is taken to be in %; do not add the unit.

Q: Request the reported growth associated with Cc1ccccc1N1CCN(C2=C(Cl)C(=O)c3ncccc3C2=O)CC1
A: 89.9

Q: Now give it for COc1ccc(/C=N/NC(=O)c2c(N)nn(C)c2Nc2ccccc2)cc1Oc1ccccc1 too.
A: 89.4

Q: Now give it for COc1ccccc1N1CCN(C2=C(Cl)C(=O)c3ncccc3C2=O)CC1 too.
A: 92.4

Q: Now give it for Cc1ccc(/C=N/Nc2nc(Nc3ccccc3)nc(Nc3ccc(S(N)(=O)=O)cc3)n2)cc1 too.
A: 90.8

###

- Test system: OVCAR-4 ovarian
- method summary: NCI-60 one-dose screen, 48 h (100 = growth as untreated, 0 = no growth, -100 = all killed)
- condition context: 10 µM unless noted
Compounds without any hit were thinned out: in the full panel of roughly 83,000, 20% have a hit.
Simple rule here: growth less than 80% is 1, otherwise 0.

Q: Quick check: growth of C#C[C@]1(O)CC[C@H]2[C@@H]3CC=C4c5sc(Nc6cc(Cl)ccc6OC)nc5CC[C@]4(C)[C@H]3CC[C@@]21C under 80%?
A: 1

Q: Now give it for COc1ccc2[nH]cc(-c3nn4cc(-c5ccncc5)nc4s3)c2c1 too.
A: 1

Q: Now give it for C#Cc1nc(/C=C\CCCCCCC(=O)NO)cs1 too.
A: 1

Q: Now give it for CCOC(=O)c1ccc(NC2=CC(=O)C(C)=C(C)C2=O)cc1 too.
A: 1

Q: Now give it for COc1ccc(OC)c(NC(=O)CCCCCCNC(=O)C(O)(O)C(F)(F)F)c1 too.
A: 0

Q: Now give it for COc1cc2cc(Oc3ccc(NC(=O)c4cc(C(F)(F)F)cc(C(F)(F)F)c4)cc3)c(C)nc2cc1OCCN1CCOCC1 too.
A: 1

Q: Now give it for COc1ccc(C(=NNS(=O)(=O)c2ccc(C)cc2)c2ccccc2)cc1OC too.
A: 0

Q: Now give it for CCOC(=O)c1ccccc1NC1=C(Cl)C(=O)c2nc(C)ccc2C1=O too.
A: 0

Q: Now give it for Cc1ccc2c(n1)C(=O)C(Cl)=C(Nc1ccc(C#N)cc1)C2=O too.
A: 1

Q: Now give it for C=C(C)[C@@H]1CC[C@]2(C(=O)N3CCN(C)CC3)CC[C@]3(C)[C@H](CC[C@@H]4[C@@]5(C)CC[C@H](OP(=O)(OCC)OCC)C(C)(C)[C@@H]5CC[C@]43C)[C@@H]12 too.
A: 0

Q: Now give it for Brc1ccc(-c2cc(-c3ccc4c(c3)OC=CO4)n[nH]2)s1 too.
A: 0

Q: Now give it for Brc1cc(-c2cc(-c3ccc4c(c3)OCCO4)[nH]n2)cs1 too.
A: 0

Q: Now give it for CNC(=O)c1cc(N2CCc3cc(NC(=O)Nc4ccc(N5CCN(C)CC5)c(C(F)(F)F)c4)ccc32)ccn1 too.
A: 0
